test system: MS2 coat protein; assay: apparent KD of MS2 coat protein, switch ON state; designed switch direction (-1 OFF switch, 1 ON switch): 1; higher = weaker reporter binding; settings: FMN input: 0 or 200 uM; Eterna round: R93 (includes R88 designs)
VALUE_TYPE: apparent KD of MS2 coat protein (nM)
Report the figure in nM without appending any unit label.

*Q* Any idea what its apparent KD of MS2 coat protein is? The sequence is AAAUGACAUGAGGAUCACCCAUGUCCACCAAACGGAGGAUAUUGGGCGGCAAAACGUUGUUAAGAAGGCCGAAAAA [SS1-1.1]
*A* 60

*Q* What would you report for CUACAACAUGAGGAUCACCCAUGUCGUAGAAAUCAAGGAUAUGGGUCGGUAACAUGCGUACCAGAAGGUGAGGAAA [Rebicequ] ?
*A* 29.3

*Q* What would you report for AGAAAACAUGAGGAUCACCCAUGUAGAAAUAUGGGAGGAUAUACGAAGACGAAAGUCGAAGUAGAAGGCCUAAAGA [Mat - Same State 1 - Meechl mod - D126] ?
*A* 23.2

*Q* What would you report for GCCUAACAUGAGGAUCACCCAUGUAGUGGGUUGUUAGGAUAUGGGCCGUGUAACACUGCACCAGAAGGAAUAGAAG [Atinanqu] ?
*A* 382

----------
tested on: K4 kissing-loop RNA reporter; test: apparent KD of K4 kissing-loop reporter; higher = weaker reporter binding; settings: Eterna round: R107; input ligand: none;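 further: bound reporter read as fluorescence of individual clusters on recovered sequencing chips by microscopy, with normalized cluster intensities fitted with a binding model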
VALUE_TYPE: apparent KD of K4 kissing-loop reporter
// return the numeric value with its unit appended

*Q* Any idea what its apparent KD of K4 kissing-loop reporter is? The sequence is CCACCAAGCACGGCCGCCACUAAAUCUGCAAGUAACCUAAAGUGAUGUUUUAUCUUGCGUCAGACUAGGACCGGGUGUCAAGUUA [theeternabot_sameState_KL_Trp_B_45]
*A* 387 nM

*Q* What would you report for AAGGUAUCACCAACUUGCAACAAAGGUGAUACCAGCAUCGAAAGAUGCCCUUGGCAGCACCAACUUGCAGUGAUGUUGCAAGUAA [(T)'-(H)'-(T1)-(T2)-(H1)-(H2)_Design10] ?
*A* 159 nM

*Q* What would you report for GUUUUAUAAGAGGAUACCAGUACAAAUAAAGUACAUUAAUAGUAGAGUGAUGUUCUAAAGUACCCUUGGCAGCUUAGAUUAAGUU [ExTheophylB.E] ?
*A* 170 nM

*Q* What would you report for AGGAGCGUGGGAUGGAAAUCGCACGCUCCUCGAGGACCGGUACGGCCGCCACUCGCUCGCGCCGAGUGAUGUUCGGCCGGCGAAG [#2 Same State - Tryptophan A Attempt #15 (HarryS)] ?
*A* 128 nM

*Q* What would you report for UAACGACUCGGAAGGAGCGCGGUUUUAAAAGACUAAGGCCGAGUGAUGUUCGGAGAAGUCCCGCAGGUAGGUCGCCGGGUUGUGG [Ceororedar] ?
*A* 130 nM

*Q* What would you report for AAGGCAGUUCGAGGAUAUCACAUACACUCCUUGAAUCAAGGAGUGAUGUUCCUUGAAGUGUAUGCAUGAGAAGGCGAAUUGCCUU [FMN B SS t5] ?
*A* 109 nM

*Q* What would you report for GGAUAGGAUAGAGGAUAUGGGUUAGGCAAGAAUAACUUGUCUUGUAAAUCCAUGAGGAGUGAUGUUCCAGAAGGCUGUCCUAUCG [MatMod 5 - Jieux - Exclusion - FMN B] ?
*A* 112 nM

*Q* What would you report for GGCCGCAAGGCGGGCCGGCCCACUCCGGAAGGAGCGCCCGCAAGGGCAGGUAGGUCGCCGGAGUGAUGUUCCGGUGGCCGGCCCG [#2 Exclusion - Arginine A Attempt #2 (Inspired by Omei)] ?
*A* 133 nM

*Q* What would you report for CAUACGCAUGGAGGAUAUGAGAUUUCUCAUAUUAUUUAAUAUUCUCAGUGAUGUUGAGAAUUUAACUCAGAAGGCCAUGUGUAUG [Ex FMN B 5] ?
*A* 156 nM

*Q* What would you report for CAGAAGCAUUCGGCCGCCACUCCAGUGAUGUUGGAGCGGGAGGGCCUUAAACCUCGAGGCUGCUGGAGGACCGGGAAUGUUGAGG [Beerso] ?
*A* 168 nM

*Q* What would you report for AGAGUUAUAUGAGGAUAUGAGAUAGUUAAUGAGUGAGUUAUAGUGUAGUUUGGUUAGUGAUGUUAUUUAGAAGGCGUGAGUGAUG [reefmullin] ?
*A* 115 nM

*Q* What would you report for UUUCGUAGAAGUGAUACCAGACUGGAAAGUGAUGUUUUCCAAUUAUUUAAAUCCUUAUCUGUCCCUUGGCAGCACAGUUUAUUUA [JR_Nu_ExcTheophyB_Sub027] ?
*A* 75.5 nM

*Q* What would you report for UAUGUACGCGGGUAACGGUACAUCGAGGAAGGAGCGUGCGCAGGCACAGGUAGGUCGCCUCAGCGCACGAGUGAUGUUCGUGGGC [Rere] ?
*A* 271 nM
